Reference source for all entries: patent US12398154B2

biological target: KRas G12S (Homo sapiens, UniProt P01116, G12S); test: biochemical;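 also: TR-FRET displacement binding to KRas, read after one hour incubation at room temperature, IC50 from four-parameter fit of percent of control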
Sequence (P01116 1-169 isoform P01116-2 G12S): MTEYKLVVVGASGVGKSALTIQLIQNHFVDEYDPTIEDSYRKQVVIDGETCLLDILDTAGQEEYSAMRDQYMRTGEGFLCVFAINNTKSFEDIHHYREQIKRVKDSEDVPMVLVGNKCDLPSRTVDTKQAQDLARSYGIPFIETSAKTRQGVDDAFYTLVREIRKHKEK

compound	endpoint-unit	IC50
NS(=O)(=O)CC1CCCN(c2nc(OCC34CCCN3CCC4)nc3c(F)c(-c4cccc5cccc(CO)c45)ncc23)C1 (stereo not shown) [Example 439]	nM	2260
Nc1cc2n(n1)CCN(c1nc(OCC34CCCN3CCC4)nc3c(F)c(-c4cccc5cccc(F)c45)ncc13)C2 [Example 126]	nM	3970
NS(=O)(=O)CC1CCCN(c2nc(OCC34CCCN3CCC4)nc3c(F)c(-c4cccc5cccc(F)c45)ncc23)C1 (stereo not shown) [Example 221]	nM	313
Fc1c(-c2cccc3cccc(F)c23)ncc2c(NCc3cnn4c3OCCC4)nc(OCC34CCCN3CCC4)nc12 [Example 222]	nM	26900
CCc1cccc2cccc(-c3ncc4c(NCc5cccnc5N)nc(OCC56CCCN5CCC6)nc4c3F)c12 [Example 204]	nM	51
Cc1cccc2cccc(-c3ncc4c(N5CCCC6(C5)NC(=O)NC6=O)nc(OCC56CCCN5CCC6)nc4c3F)c12 (stereo not shown) [Example 448]	nM	49
Fc1c(-c2cccc3cccc(F)c23)ncc2c(NCCCn3cnnn3)nc(OCC34CCCN3CCC4)nc12 [Example 119]	nM	14600

====

Reported log10 of IC50 values follow for various compounds
target: KRas Q61H (Homo sapiens, UniProt P01116, Q61H); construct: Biotinylated KRas (corresponding to amino acids 1-169, produced at Accelegan Inc.); biotin (biotinylated); purchased Accelegan Inc; test: KRas binding assay (TR-FRET displacement);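 also: TR-FRET signal read after one hour at room temperature, IC50 derived by four-parameter fitting of percent-of-control values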
Sequence (P01116 1-169 isoform P01116-2 Q61H): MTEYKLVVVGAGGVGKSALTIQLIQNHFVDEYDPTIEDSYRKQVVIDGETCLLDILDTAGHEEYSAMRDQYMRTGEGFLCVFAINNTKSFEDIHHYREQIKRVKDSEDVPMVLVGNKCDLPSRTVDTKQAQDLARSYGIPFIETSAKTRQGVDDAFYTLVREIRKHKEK
observed-property: log10 of IC50 (log10 of the value in nM)

compound	log10 of IC50
Fc1c(-c2cccc3cccc(Cl)c23)ncc2c(N3CCCC(n4cccn4)C3)nc(OCC34CCCN3CCC4)nc12 (stereo not drawn) [Example 109]	3.69
Fc1c(-c2cccc3cccc(F)c23)ncc2c(NCc3nnc4ncccn34)nc(OCC34CCCN3CCC4)nc12 [Example 121]	4.40
Fc1c(-c2cccc3cccc(F)c23)ncc2c(N3CC(c4ccncc4)C3)nc(OCC34CCCN3CCC4)nc12 [Example 213]	4.25
NC(=O)C1CCCN(c2nc(OCC34CCCN3CCC4)nc3c(F)c(-c4cccc5cccc(F)c45)ncc23)C1 (stereo not drawn) [Example 86]	3.68
CCc1cccc2cccc(-c3ncc4c(NCc5cccnc5N)nc(OCC56CCCN5CCC6)nc4c3F)c12 [Example 204]	2.45
O=S1(=O)CC[C@H](CNc2nc(OCC34CCCN3CCC4)nc3c(F)c(-c4cccc5cccc(F)c45)ncc23)N1 [Example 128]	4.26

====

tested on: pERK in MKN1 cells; assay: Inhibition of KRas phosphorylation of ERK (Cisbio HTRF pERK assay); settings: Homo sapiens, MKN-1, 3 h, read-out: Inhibition (HTRF IC50) of KRas-mediated Phosphorylation of ERK, MKN1
Below, each entry is listed with its recorded IC50.

compound	IC50
CCc1c(F)ccc2cc(O)cc(-c3ncc4c(N5CCCn6nc(C(=O)NC)cc6C5)nc(OC[C@@]56CCCN5C[C@H](F)C6)nc4c3F)c12 [Example 339]	12 nM
CCc1c(F)ccc2cc(O)cc(-c3ncc4c(N5CCC[C@@](C)(O)C5)nc(OC[C@@H]5C[C@@H](OC(=O)NC)CN5C)nc4c3F)c12 [Example 12]	26 nM
CCc1c(F)ccc2cc(O)cc(-c3ncc4c(NCCc5c[nH]nn5)nc(OC[C@@]56CCCN5C[C@H](F)C6)nc4c3F)c12 [Example 169]	100 nM
CCc1c(F)ccc2cc(O)cc(-c3ncc4c(NCCC5CNC(=O)N5)nc(OC[C@@]56CCCN5C[C@H](F)C6)nc4c3F)c12 (stereo partly drawn) [Example 382]	781 nM
CCc1c(F)ccc2cc(O)cc(-c3ncc4c(N5CCC[C@@](C)(O)C5)nc(OCC(C)(C)CN(C)C)nc4c3F)c12 [Example 366]	11 nM
CCc1c(F)ccc2cc(O)cc(-c3ncc4c(NC5CCS(=O)(=O)C5)nc(OC[C@@]56CCCN5C[C@H](F)C6)nc4c3F)c12 (stereo partly drawn) [Example 349]	149 nM

====

# log10(IC50) listing for each entry below
molecular target: KRas G13D (Homo sapiens, UniProt P01116, G13D); construct: Biotinylated KRas (corresponding to amino acids 1-169, produced at Accelegan Inc.); biotin (biotinylated); purchased Accelegan Inc; test: KRas binding assay (TR-FRET displacement);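 also: One-hour room temperature incubation before TR-FRET reading, IC50 from a four-parameter curve fit to percent-of-control data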
Sequence (P01116 1-169 isoform P01116-2 G13D): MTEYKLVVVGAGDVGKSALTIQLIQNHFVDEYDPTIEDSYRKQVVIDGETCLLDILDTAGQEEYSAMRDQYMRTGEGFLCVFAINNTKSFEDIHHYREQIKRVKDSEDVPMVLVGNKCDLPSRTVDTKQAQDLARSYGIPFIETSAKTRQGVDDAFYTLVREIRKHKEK
observed-property: log10(IC50) (log10 of the value in nM)

molecule	log10(IC50)
CCc1cccc2cccc(-c3ncc4c(NCc5cccnc5N)nc(OCC56CCCN5CCC6)nc4c3F)c12	2.50
Fc1c(-c2cccc3cccc(F)c23)ncc2c(N3CCCCC3)nc(OCC34CCCN3CCC4)nc12	4.10
NC(=O)c1cc2n(n1)CCCN(c1nc(OCC34CCCN3CCC4)nc3c(F)c(-c4cccc5cccc(F)c45)ncc13)C2	3.64
O=S1(=O)NCCC2(CCCN(c3nc(OCC45CCCN4CCC5)nc4c(F)c(-c5cccc6cccc(F)c56)ncc34)C2)N1 (centres unmarked)	3.07
O=S1(=O)CCCN1C1CCCN(c2nc(OCC34CCCN3CCC4)nc3c(F)c(-c4cccc5cccc(F)c45)ncc23)C1 (centres unmarked)	3.21
OC1CCC12CCCN(c1nc(OCC34CCCN3CCC4)nc3c(F)c(-c4cccc5cccc(F)c45)ncc13)C2 (centres unmarked)	3.87
O=c1[nH][nH]cc1CNc1nc(OCC23CCCN2CCC3)nc2c(F)c(-c3cccc4cccc(F)c34)ncc12	4.55
Fc1c(-c2cccc3cccc(F)c23)ncc2c(NCCc3c[nH]nn3)nc(OCC34CCCN3CCC4)nc12	4.33
Fc1c(-c2cccc3cccc(F)c23)ncc2c(NCc3cn[nH]c3)nc(OCC34CCCN3CCC4)nc12	4.31
O=S1(=O)CC[C@H](CNc2nc(OCC34CCCN3CCC4)nc3c(F)c(-c4cccc5cccc(F)c45)ncc23)N1	4.13
Fc1c(-c2cccc3cccc(F)c23)ncc2c(NCc3cnn4cccnc34)nc(OCC34CCCN3CCC4)nc12	4.98
O=S1(=O)NCC2(CCCN(c3nc(OCC45CCCN4CCC5)nc4c(F)c(-c5cccc6cccc(F)c56)ncc34)C2)N1 (centres unmarked)	0.78
O=C1CCC2(CCCN(c3nc(OCC45CCCN4CCC5)nc4c(F)c(-c5cccc6cccc(F)c56)ncc34)C2)C1 (centres unmarked)	3.94

====

molecular target: KRas G12R (Homo sapiens, UniProt P01116, G12R); experiment: biochemical;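 also: TR-FRET displacement assay of compound binding to KRas, read after one hour at room temperature, potency from a four-parameter fit of percent-of-control values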
Sequence (P01116 1-169 isoform P01116-2 G12R): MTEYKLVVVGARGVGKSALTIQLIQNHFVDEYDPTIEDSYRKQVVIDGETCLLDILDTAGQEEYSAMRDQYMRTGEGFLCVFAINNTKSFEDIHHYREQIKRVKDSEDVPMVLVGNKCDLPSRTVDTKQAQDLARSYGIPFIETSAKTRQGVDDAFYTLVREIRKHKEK
Quick reference for IC50 among some compounds
observed-property: IC50

compound	observed-property	data-value
NS(=O)(=O)CC1CCCN(c2nc(OCC34CCCN3CCC4)nc3c(F)c(-c4cccc5cccc(CF)c45)ncc23)C1 (stereo not drawn)	IC50	548 nM
CCc1c(F)ccc2cc(O)cc(-c3ncc4c(N5CCC[C@]6(C5)NC(=O)NC6=O)nc(OCC5(CN6CCCC6)CC5)nc4c3F)c12	IC50	≤ 2 nM
NC(=O)[C@H]1CCCN(c2nc(OCC34CCCN3CCC4)nc3c(F)c(-c4cccc5cccc(F)c45)ncc23)C1	IC50	5200 nM
Fc1c(-c2cccc3cccc(F)c23)ncc2c(N3CCCOCC3)nc(OCC34CCCN3CCC4)nc12	IC50	3090 nM
C#Cc1c(F)ccc2cc(O)cc(-c3ncc4c(N5CCOCC(CO)C5)nc(OC[C@@]56CCCN5C[C@H](F)C6)nc4c3F)c12 (stereo partly drawn)	IC50	≤ 2 nM
C#Cc1c(F)ccc2cc(O)cc(-c3ncc4c(N5CCCC6(CNS(=O)(=O)N6)C5)nc(OC[C@@]56CCCN5C[C@H](F)C6)nc4c3F)c12 (stereo partly drawn)	IC50	3 nM

====

Endpoint: pIC50. System: KRas WT (Homo sapiens, UniProt P01116). Items follow.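 Also: binding to KRas read as TR-FRET displacement after a one-hour room-temperature incubation, IC50 derived from percent-of-control values.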
Sequence (P01116 1-169 isoform P01116-2): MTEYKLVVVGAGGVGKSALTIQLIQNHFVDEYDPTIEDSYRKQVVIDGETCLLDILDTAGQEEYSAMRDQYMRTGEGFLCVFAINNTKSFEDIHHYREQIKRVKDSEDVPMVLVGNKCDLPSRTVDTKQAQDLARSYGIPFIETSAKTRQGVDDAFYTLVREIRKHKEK
pIC50: −log10 of the molar value.
observed-property: pIC50

compound	data-value
O=C1CC(CNc2nc(OCC34CCCN3CCC4)nc3c(F)c(-c4cccc5cccc(Cl)c45)ncc23)CN1 (stereo not drawn)	5.93
O=C1NC(=O)C2(CCCN(c3nc(OCC45CCCN4CCC5)nc4c(F)c(-c5cccc6cccc(F)c56)ncc34)C2)N1 (stereo not drawn)	6.99
OCC12CC(Nc3nc(OCC45CCCN4CCC5)nc4c(F)c(-c5cccc6cccc(F)c56)ncc34)(C1)C2	5.35
Fc1c(-c2cccc3cccc(F)c23)ncc2c(NCCCc3cccnc3)nc(OCC34CCCN3CCC4)nc12	5.15
O=C1NC(=O)C2(CCCN(c3nc(OCC45CCCN4CCC5)nc4c(F)c(-c5cccc6cccc(C(F)F)c56)ncc34)C2)N1 (stereo not drawn)	6.18
O=C(c1cc2n(n1)CCCN(c1nc(OCC34CCCN3CCC4)nc3c(F)c(-c4cccc5cccc(F)c45)ncc13)C2)N1CCOCC1	5.49
CN(C)C(=O)n1cc2c(n1)CCCN(c1nc(OCC34CCCN3CCC4)nc3c(F)c(-c4cccc5cccc(F)c45)ncc13)C2	4.83
Nc1cc2n(n1)CCCN(c1nc(OCC34CCCN3CCC4)nc3c(F)c(-c4cccc5cccc(F)c45)ncc13)C2	5.57
O=CNC1CCN(c2nc(OCC34CCCN3CCC4)nc3c(F)c(-c4cccc5cccc(F)c45)ncc23)CC1	5.29
OC1CC2CC(C1)N(c1nc(OCC34CCCN3CCC4)nc3c(F)c(-c4cccc5cccc(Cl)c45)ncc13)C2 (stereo not drawn)	5.68
Nc1ncccc1CNc1nc(OCC23CCCN2CCC3)nc2c(F)c(-c3cccc4cccc(F)c34)ncc12	5.54
NC(=O)C1COCCN(c2nc(OCC34CCCN3CCC4)nc3c(F)c(-c4cccc5cccc(F)c45)ncc23)C1 (stereo not drawn)	5.38
